experiment: MMV: MTT Cytotoxicity Assay Day 3 pi, U87-CD4-CXCR4 cells, % cell death @ 5mM compound
Type: toxicity, cell-based
settings: human, u87-cd4-cxcr4, 5000 µM
# binarize % Cell Death: threshold 30 inclusive, high side YES, low side NO

# compound, category.label
records = [
    ("CCOc1c(Br)cc(C2C(C(=O)OC)=CN(C)C=C2C(=O)OC)cc1OC", "NO"),
    ("Oc1c2c(nc3cc(-c4ccccc4)nn13)CCCC2", "NO"),
    ("COc1cc(SC)ccc1C(=O)N1CCCC(C)C1 (stereo unspecified)", "NO"),
    ("Cc1ccc(-c2cc3c(SCC(=O)Nc4cc(C(F)(F)F)ccc4Cl)nccn3n2)cc1", "YES"),
    ("CCN1CCCC1CNc1[nH]cnc2c3cc(Cl)ccc3nc1-2 (stereo unspecified)", "NO"),
    ("CCOc1cc2c(cc1OCC)C(c1cc(Cl)ccc1O)NCC2 (stereo unspecified)", "YES"),
    ("CSc1ccccc1C(=O)Nc1nc(-c2ccccn2)cs1", "YES"),
    ("CCOc1ccc(-c2nonc2NC(=O)c2cccc(C)c2)cc1OCC", "NO"),
    ("C=CC12CCN(CC1)C(C(O)c1ccnc3ccc(OC)cc13)C2.Cl (stereo unspecified)", "NO"),
    ("O=C(Nc1ccc(Cl)cc1)N1CCN(c2ccc3nncn3n2)CC1", "NO"),
    ("CCOc1ccc(/C=C/c2nc(=O)c3ccccc3o2)cc1", "YES"),
]
